The reported measurements were obtained from PubChem BioAssay AID1520.

# Protocol Details: parental Ba/F3 cell viability inhibition, counter-screen for JAK2V617F inhibitor project, murine pro-B, CellTiter-Glo luminescence (AID 1520)
# Conditions: at 5.6 µM, stronger effect = higher value, cells kept alive by added IL-3
The list shows a part of the results.
Class YES: inhibition at least 50%. Class NO: inhibition below 50%.

| Mol Smiles | Assigned Label |
| --- | --- |
| N#C/C=C\Oc1ccc(Cl)cc1N | NO |
| COc1ccc(Cc2nnc(N/N=C/c3ccccc3O)[nH]c2=O)cc1OC | YES |
| COc1ccccc1N1CCN(Cc2ccc(OC)c3ccccc23)CC1 | NO |
| Cn1c(CCN2CCCCCC2)nc2cc(NC(=O)Nc3ccccc3)ccc21 | NO |
| Cc1ccc(NC(=S)N(CCCN2CCC(C)CC2)Cc2ccco2)cc1 | NO |
| CN(Cc1ccc2nsnc2c1)Cc1nc(Cc2cccc(F)c2)no1 | NO |
| COc1ccc(-c2csc(Nc3ccc(O)cc3)n2)cc1 | YES |
| c1ccc2c(c1)CSc1sccc1C2=C1CCNCC1 | NO |
| COc1ccc(OC)c(Nc2nc(-c3ccc(O)c(O)c3)cs2)c1 | YES |
